Molecular target: D-3-phosphoglycerate dehydrogenase (Homo sapiens)
Sequence (O43175 whole entry): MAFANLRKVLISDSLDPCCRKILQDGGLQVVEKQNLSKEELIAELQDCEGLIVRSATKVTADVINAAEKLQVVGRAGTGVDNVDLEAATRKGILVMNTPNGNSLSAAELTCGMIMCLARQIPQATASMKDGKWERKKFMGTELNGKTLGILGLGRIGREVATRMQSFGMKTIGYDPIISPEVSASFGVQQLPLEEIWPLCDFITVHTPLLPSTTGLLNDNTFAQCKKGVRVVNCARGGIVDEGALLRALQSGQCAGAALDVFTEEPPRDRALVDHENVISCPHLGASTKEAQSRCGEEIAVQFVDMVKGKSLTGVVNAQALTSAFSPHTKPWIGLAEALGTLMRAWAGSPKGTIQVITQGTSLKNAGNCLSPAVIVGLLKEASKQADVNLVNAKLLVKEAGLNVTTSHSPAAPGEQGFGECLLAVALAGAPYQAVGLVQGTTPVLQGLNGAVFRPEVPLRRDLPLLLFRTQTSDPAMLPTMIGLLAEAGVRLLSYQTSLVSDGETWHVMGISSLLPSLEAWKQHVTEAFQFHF
Assay: Inhibition of full length PHGDH (unknown origin) using 3-phosphoglycerate as substrate incubated for 60 mins in presence of PSAT1, PSPH by resazurin based diaphorase coupled assay
Measurement Type: IC50

Look over these answered cases.
Mol Smiles: Cc1c(-c2ccccc2)n[nH]c1C(=O)Nc1ccc(S(=O)(=O)Nc2ncccn2)cc1
Measurement Type: IC50
Measured Result: > 100 µM
--
Mol Smiles: Nc1ncccc1-c1cc(C(=O)Nc2ccc(S(=O)(=O)Nc3ncccn3)cc2)[nH]n1
Measurement Type: IC50
Measured Result: > 100 µM
--
Mol Smiles: Cn1nc(-c2ccccc2)cc1C(=O)Nc1ccc(S(=O)(=O)Nc2ncccn2)cc1
Measurement Type: IC50
Measured Result: < 50 µM

Shifting focus to the compound that follows.
Exercise: IC50 for Cc1cc(C)nc(NS(=O)(=O)c2ccc(NC(=O)c3cc(-c4ccccc4)n[nH]3)cc2)n1 ?
Key: < 50 µM
